# PBM binding z-score listing for each entry below
# Test system: PPARg DBDmut IVT, anti-PPARg (DBD mutation: PPARg1 K132A/R137A, NR concentration 270 nM)
# protocol.text: PBM binding z-score (relative to random genomic background probes); higher = stronger binding; sequences stand for … in GC…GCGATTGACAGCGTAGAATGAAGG

- record.sequence: "TCGAGTAGGTTAGGAGCATTCAGAATGGCGTCGA"
  target.under.test: "PPARg DBDmut IVT, anti-PPARg (DBD mutation: PPARg1 K132A/R137A, NR concentration 270 nM)"
  PBM binding z-score: -1.2
- record.sequence: "AGGATGAGGTTACCAAAGATCAGGGAAACGCTTG"
  target.under.test: "PPARg DBDmut IVT, anti-PPARg (DBD mutation: PPARg1 K132A/R137A, NR concentration 270 nM)"
  PBM binding z-score: 0.461
- record.sequence: "ATCTAAAGGTCGACGAGGTGAGTATACACCGTTT"
  target.under.test: "PPARg DBDmut IVT, anti-PPARg (DBD mutation: PPARg1 K132A/R137A, NR concentration 270 nM)"
  PBM binding z-score: 0.877
- record.sequence: "CCTTACGGGTCACTCCAGGTTTTAGCATCGGAGT"
  target.under.test: "PPARg DBDmut IVT, anti-PPARg (DBD mutation: PPARg1 K132A/R137A, NR concentration 270 nM)"
  PBM binding z-score: 0.802
- record.sequence: "ATATGTAGGTTAAGGGTCGTTCAGGTTGGTTCGC"
  target.under.test: "PPARg DBDmut IVT, anti-PPARg (DBD mutation: PPARg1 K132A/R137A, NR concentration 270 nM)"
  PBM binding z-score: 1.59
- record.sequence: "CAGACTGGGGCAGAAAGGTTACCATACCATCCGG"
  target.under.test: "PPARg DBDmut IVT, anti-PPARg (DBD mutation: PPARg1 K132A/R137A, NR concentration 270 nM)"
  PBM binding z-score: -0.142
- record.sequence: "CTCGAACGGTCGGTTGAGGTGAGTATACGGATAA"
  target.under.test: "PPARg DBDmut IVT, anti-PPARg (DBD mutation: PPARg1 K132A/R137A, NR concentration 270 nM)"
  PBM binding z-score: -0.429
- record.sequence: "GCATATAGTTAATACAAGGTGAAAGTCCGATTGT"
  target.under.test: "PPARg DBDmut IVT, anti-PPARg (DBD mutation: PPARg1 K132A/R137A, NR concentration 270 nM)"
  PBM binding z-score: 1.15
- record.sequence: "TCTATTAGGTGAAGGGCAACCGACGAGTCCGTTT"
  target.under.test: "PPARg DBDmut IVT, anti-PPARg (DBD mutation: PPARg1 K132A/R137A, NR concentration 270 nM)"
  PBM binding z-score: 0.901
- record.sequence: "AATACAGGGTCACTAGGCCAGACTAGGTACGAAT"
  target.under.test: "PPARg DBDmut IVT, anti-PPARg (DBD mutation: PPARg1 K132A/R137A, NR concentration 270 nM)"
  PBM binding z-score: 1.09
- record.sequence: "GCTCGGAGGACAAGTTCAGAGCTTTGTCCGTAGA"
  target.under.test: "PPARg DBDmut IVT, anti-PPARg (DBD mutation: PPARg1 K132A/R137A, NR concentration 270 nM)"
  PBM binding z-score: -1.47
- record.sequence: "CATACAGGGTCAGCTAGGCCAGACTAGGGACGGC"
  target.under.test: "PPARg DBDmut IVT, anti-PPARg (DBD mutation: PPARg1 K132A/R137A, NR concentration 270 nM)"
  PBM binding z-score: 0.373
- record.sequence: "TCTATTAGTTGAAGGACAACCGACGAGTCCGTTT"
  target.under.test: "PPARg DBDmut IVT, anti-PPARg (DBD mutation: PPARg1 K132A/R137A, NR concentration 270 nM)"
  PBM binding z-score: 1.19
- record.sequence: "ACTATTAGTTGAGACGCGGGCAACCGATAGGTTG"
  target.under.test: "PPARg DBDmut IVT, anti-PPARg (DBD mutation: PPARg1 K132A/R137A, NR concentration 270 nM)"
  PBM binding z-score: 0.188
- record.sequence: "CGTCCAAGGTCATAGGAGGTCAGTGACGACAGAT"
  target.under.test: "PPARg DBDmut IVT, anti-PPARg (DBD mutation: PPARg1 K132A/R137A, NR concentration 270 nM)"
  PBM binding z-score: 0.133
- record.sequence: "TCTAGTTGGTCAAAGGTCACAGACTCGAAATGCG"
  target.under.test: "PPARg DBDmut IVT, anti-PPARg (DBD mutation: PPARg1 K132A/R137A, NR concentration 270 nM)"
  PBM binding z-score: 1.43
- record.sequence: "CCTACCAGGCCAATCTGGGTCACTCAAGGCTTGA"
  target.under.test: "PPARg DBDmut IVT, anti-PPARg (DBD mutation: PPARg1 K132A/R137A, NR concentration 270 nM)"
  PBM binding z-score: -1.08
- record.sequence: "CAAACTAGGCCACAGAGGTCAAAGTCCGTGCGTA"
  target.under.test: "PPARg DBDmut IVT, anti-PPARg (DBD mutation: PPARg1 K132A/R137A, NR concentration 270 nM)"
  PBM binding z-score: 0.00435
- record.sequence: "CAAACTAGGTCAAGAGCTCAAAGTCCGCTTCCCG"
  target.under.test: "PPARg DBDmut IVT, anti-PPARg (DBD mutation: PPARg1 K132A/R137A, NR concentration 270 nM)"
  PBM binding z-score: 2.91
- record.sequence: "GGAACGAGGGCAAGTTGAAAGCAGAGTTTGATGG"
  target.under.test: "PPARg DBDmut IVT, anti-PPARg (DBD mutation: PPARg1 K132A/R137A, NR concentration 270 nM)"
  PBM binding z-score: -0.635
- record.sequence: "AGAACGAGGGCACGCTGAGTTGTTAGCAGAGTAG"
  target.under.test: "PPARg DBDmut IVT, anti-PPARg (DBD mutation: PPARg1 K132A/R137A, NR concentration 270 nM)"
  PBM binding z-score: 0.0717
- record.sequence: "TCTTGTAGATCAACAGGAGGTTAAGGAAGATCGA"
  target.under.test: "PPARg DBDmut IVT, anti-PPARg (DBD mutation: PPARg1 K132A/R137A, NR concentration 270 nM)"
  PBM binding z-score: 0.495
- record.sequence: "ATCTCTAGGTAACAAGTTCAGTAAAAGAGAGGAC"
  target.under.test: "PPARg DBDmut IVT, anti-PPARg (DBD mutation: PPARg1 K132A/R137A, NR concentration 270 nM)"
  PBM binding z-score: 1.1
- record.sequence: "GCTACCAGGCCATTTGGGTCACTCAATGACGGGC"
  target.under.test: "PPARg DBDmut IVT, anti-PPARg (DBD mutation: PPARg1 K132A/R137A, NR concentration 270 nM)"
  PBM binding z-score: -0.407
- record.sequence: "AGAATGAGGTTATACGTAGATCAGGGTAGAAAGT"
  target.under.test: "PPARg DBDmut IVT, anti-PPARg (DBD mutation: PPARg1 K132A/R137A, NR concentration 270 nM)"
  PBM binding z-score: 0.356
- record.sequence: "GCTGCTAGGTGAACTGATGGTCAGCTAAAGCTCG"
  target.under.test: "PPARg DBDmut IVT, anti-PPARg (DBD mutation: PPARg1 K132A/R137A, NR concentration 270 nM)"
  PBM binding z-score: -1.06

Data origin: the supplement of paper PMC6555819
